Target: gastrin receptor (Cavia porcellus, UniProt H0VZC5)
Construct: Strips of muscle (approximately 2.5 cm by 1 cm) are removed from the proximal area of the stomach; from tissue; host or cells: guinea-pig proximal stomach (fundus) muscle strips
Sequence (H0VZC5 1-426): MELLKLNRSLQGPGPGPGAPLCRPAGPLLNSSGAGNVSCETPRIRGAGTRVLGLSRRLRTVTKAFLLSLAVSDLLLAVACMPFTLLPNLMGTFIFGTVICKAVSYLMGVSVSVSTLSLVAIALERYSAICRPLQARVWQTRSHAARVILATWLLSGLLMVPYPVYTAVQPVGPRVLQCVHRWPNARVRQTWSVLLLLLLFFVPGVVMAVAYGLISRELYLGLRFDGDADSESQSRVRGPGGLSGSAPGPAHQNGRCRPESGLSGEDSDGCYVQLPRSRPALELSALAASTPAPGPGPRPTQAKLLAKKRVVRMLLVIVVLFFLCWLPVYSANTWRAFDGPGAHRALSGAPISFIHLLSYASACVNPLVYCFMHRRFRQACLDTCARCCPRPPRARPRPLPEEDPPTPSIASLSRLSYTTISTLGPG
Assay: guinea-pig fundus assay for gastrin activity (stomach muscle strips)
Type: cell-based
Conditions: 10^-8 M devazepide present, 60 minute equilibration, agonist e.g. pentagastrin, standard errors less than 5%
Procedure: The compounds were assayed for gastrin activity using the mouse stomach assay as described by Black, J. W. and Shankley, N. P., Br. J. Pharmacol., 86, 571-579, (1985), and also in the guinea-pig fundus assay, as follows: The stomach is removed from a male Dunkin-Hartley guinea-pig (250-500 g), and Krebs solution is injected through a hypodermic needle under the top stomach muscle layer. […]
Non-standard residues stand in square brackets, D forms with d. Residues, ends and D or L forms follow the SMILES beside them. *: point of attachment. 2Nal = N[C@@H](Cc1ccc2ccccc2c1)C(=O)O; Boc = CC(C)(C)OC(=O)*
# binarize pKB: threshold 6 inclusive, high side true (1), low side false (0)

CN(C)C(=O)[C@H](Cc1ccccc1)NC(=O)[C@H](CC(=O)O)NC(=O)[C@H](Cc1ccc2ccccc2c1)NC(=O)[C@H](Cc1c[nH]c2ccccc12)NC(=O)OC(C)(C)C [Example 6] (Boc-W[2Nal]DF-NMe2) :: false (0)
CCCCOC(=O)N[C@@H](Cc1c[nH]c2ccccc12)C(=O)N[C@@H](Cc1ccc2ccccc2c1)C(=O)N[C@@H](CC(=O)O)C(=O)NCCc1ccccc1C(F)(F)F :: false (0)
CC(C)(C)OC(=O)N[C@@H](Cc1c[nH]c2ccccc12)C(=O)N[C@@H](Cc1ccc2ccccc2c1)C(=O)N[C@@H](CC(=O)O)C(=O)NCCc1ccc(Cl)c(Cl)c1 :: false (0)
CC(C)(C)OC(=O)N[C@@H](Cc1c[nH]c2ccccc12)C(=O)N[C@@H](Cc1ccc2ccccc2c1)C(=O)N[C@@H](CC(=O)O)C(=O)N[C@@H]1CCC[C@@H]1c1ccccc1 (single isomer, unassigned; diastereomer 1) [Example 33] :: true (1)
CC(C)(C)OC(=O)N[C@@H](Cc1c[nH]c2ccccc12)C(=O)N[C@@H](Cc1ccc2ccccc2c1)C(=O)N[C@@H](CC(=O)O)C(=O)NCCc1ccc(F)cc1 :: false (0)

Does the molecule "COc1ccc(CCNC(=O)[C@H](CCC(=O)O)NC(=O)[C@H](Cc2ccc3ccccc3c2)NC(=O)[C@H](Cc2c[nH]c3ccccc23)NC(=O)OC(C)(C)C)cc1" have recorded pKB that is 6 or more?
false (0)

Now consider "COc1cccc(CCNC(=O)[C@H](CC(=O)O)NC(=O)[C@H](Cc2ccc3ccccc3c2)NC(=O)[C@H](Cc2c[nH]c3ccccc23)NC(=O)OC(C)(C)C)c1" .
false (0)

###

pKB overview
Target: cholecystokinin receptors (Cavia porcellus)
Construct: Isolated, strip preparations were prepared from gall-bladders removed from male Dunkin-Hartley guinea-pigs; from tissue; host or cells: guinea-pig gall-bladder strips
Sequence (Q63931 1-430): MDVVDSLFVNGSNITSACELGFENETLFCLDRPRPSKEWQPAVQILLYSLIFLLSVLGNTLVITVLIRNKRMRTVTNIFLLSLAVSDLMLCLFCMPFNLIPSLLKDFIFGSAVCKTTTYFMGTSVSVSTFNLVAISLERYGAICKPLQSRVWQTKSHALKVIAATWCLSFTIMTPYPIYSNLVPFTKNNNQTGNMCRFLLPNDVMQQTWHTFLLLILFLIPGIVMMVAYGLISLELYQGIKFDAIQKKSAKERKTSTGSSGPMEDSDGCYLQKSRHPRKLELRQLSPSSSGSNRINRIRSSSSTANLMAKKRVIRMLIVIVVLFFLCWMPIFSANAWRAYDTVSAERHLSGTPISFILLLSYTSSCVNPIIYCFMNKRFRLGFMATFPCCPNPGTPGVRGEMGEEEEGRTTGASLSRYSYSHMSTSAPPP
Test: CCK-antagonist activity in isolated guinea-pig gall-bladder strip preparations
Format: cell-based
Settings: guinea-pig gall-bladder strips; CCK-8 as agonist; test compound incubated for 60 minutes; standard errors less than 5%
Just the number, please, no unit after it.

NC(=O)[C@H](Cc1ccccc1)NC(=O)[C@H](CC(=O)O)NC(=O)[C@H](Cc1ccc2ccccc2c1)NC(=O)Cc1c[nH]c2ccccc12 [Example 20] :: 6.7
CC(C)(C)OC(=O)N[C@@H](Cc1c[nH]c2ccccc12)C(=O)N[C@@H](Cc1ccc2ccccc2c1)C(=O)N[C@@H](CC(=O)O)C(=O)N1CCc2ccccc2C1 [Example 26] :: 6.6
CC(C)(C)OC(=O)N[C@@H](Cc1c[nH]c2ccccc12)C(=O)N[C@@H](Cc1ccc2ccccc2c1)C(=O)N[C@@H](CC(=O)O)C(=O)NCCc1cccc(C(F)(F)F)c1 [Example 50] :: 6.1
CC(C)(C)OC(=O)N[C@@H](Cc1c[nH]c2ccccc12)C(=O)N[C@@H](Cc1ccc2ccccc2c1)C(=O)N[C@H](CC(=O)O)C(=O)NCCc1ccc(F)cc1 [Example 52] :: 6.4

Next item in the queue.
Need pKB of Cc1cccc(CCNC(=O)[C@H](CC(=O)O)NC(=O)[C@H](Cc2ccc3ccccc3c2)NC(=O)[C@H](Cc2c[nH]c3ccccc23)NC(=O)OC(C)(C)C)c1 [Example 39] , thanks.
6.7

###

Target: cholecystokinin receptors (Cavia porcellus)
Construct: Isolated, strip preparations were prepared from gall-bladders removed from male Dunkin-Hartley guinea-pigs; from tissue; host or cells: guinea-pig gall-bladder strips
Test: CCK-antagonist activity in isolated guinea-pig gall-bladder strip preparations
Format: cell-based
Conditions: guinea-pig gall-bladder strips; CCK-8 as agonist; test compound incubated for 60 minutes; standard errors less than 5%
Readout type: pKB
Just the number, please, no unit after it.

CC(C)(C)OC(=O)N[C@@H](Cc1c[nH]c2ccccc12)C(=O)N[C@@H](Cc1ccc2ccccc2c1)C(=O)N[C@@H](CC(=O)O)C(=O)N[C@@H]1CCC[C@H]1c1ccccc1 (single isomer, unassigned; diastereomer 2) [Example 32] :: 6.6
CC(C)(C)OC(=O)N[C@@H](Cc1c[nH]c2ccccc12)C(=O)N[C@@H](Cc1ccc2ccccc2c1)C(=O)N[C@@H](CC(=O)O)C(=O)NCCc1cccc(F)c1 [Example 65] :: 6.7

Next item in the queue.
Need pKB of CC(C)(C)OC(=O)N[C@@H](Cc1c[nH]c2ccccc12)C(=O)N[C@@H](Cc1ccc2ccccc2c1)C(=O)N[C@@H](CC(=O)O)C(=O)NCCc1ccc2c(c1)CCCC2 [Example 43] , thanks.
6.5

###

Acid seretion at 10^-5 M test compound, relative to pentagastrin (%) overview
Biological target: gastrin receptor (Mus musculus)
Construct: assayed for gastrin activity using the mouse stomach assay; from tissue; host or cells: isolated mouse stomach
Sequence (P56481 1-453): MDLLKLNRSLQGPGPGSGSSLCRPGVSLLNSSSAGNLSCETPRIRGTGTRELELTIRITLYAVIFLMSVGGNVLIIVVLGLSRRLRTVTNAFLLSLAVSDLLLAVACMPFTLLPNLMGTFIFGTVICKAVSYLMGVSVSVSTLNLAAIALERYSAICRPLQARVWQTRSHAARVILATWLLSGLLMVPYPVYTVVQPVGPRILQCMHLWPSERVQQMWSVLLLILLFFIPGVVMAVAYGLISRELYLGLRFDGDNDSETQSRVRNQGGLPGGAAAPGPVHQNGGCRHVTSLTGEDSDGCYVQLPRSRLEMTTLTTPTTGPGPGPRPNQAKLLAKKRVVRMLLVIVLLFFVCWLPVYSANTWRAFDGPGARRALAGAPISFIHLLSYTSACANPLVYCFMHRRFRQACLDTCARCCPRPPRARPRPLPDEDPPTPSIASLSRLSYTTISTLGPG
Assay: mouse stomach assay for gastrin activity (isolated stomach, acid secretion)
Assay type: cell-based
Details: mouse stomach; 10^-5 M test compound; relative to pentagastrin; NS = not significant
Non-standard residues stand in square brackets, D forms with d. Residues, ends and D or L forms follow the SMILES beside them. *: point of attachment. d1Nal = N[C@H](Cc1cccc2ccccc12)C(=O)O; Boc = CC(C)(C)OC(=O)*
Include the unit right after the number.

CC(C)(C)OC(=O)N[C@@H](Cc1c[nH]c2ccccc12)C(=O)N[C@@H](Cc1ccc2ccccc2c1)C(=O)N[C@@H](CC(=O)O)C(=O)NCCc1ccc(Cl)cc1 [Example 8] :: 28%
COc1ccc(CCNC(=O)[C@H](CC(=O)O)NC(=O)[C@H](Cc2ccc3ccccc3c2)N(C)C(=O)[C@H](Cc2c[nH]c3ccccc23)NC(=O)OC(C)(C)C)cc1 [Example 59] :: 20%

Need Acid seretion at 10^-5 M test compound, relative to pentagastrin (%) of CC(C)(C)OC(=O)N[C@@H](Cc1c[nH]c2ccccc12)C(=O)N[C@H](Cc1cccc2ccccc12)C(=O)N[C@@H](CC(=O)O)C(=O)N[C@@H](Cc1ccccc1)C(N)=O [Example 24] (Boc-W[d1Nal]DF-NH2) , thanks.
50%
